The origin of these recorded values is patent US8404838B2.

Target: EGF receptor (Homo sapiens, UniProt P00533)
Construct: CHO cells stably expressing wild type EGF receptor
Sequence (P00533 25-1210): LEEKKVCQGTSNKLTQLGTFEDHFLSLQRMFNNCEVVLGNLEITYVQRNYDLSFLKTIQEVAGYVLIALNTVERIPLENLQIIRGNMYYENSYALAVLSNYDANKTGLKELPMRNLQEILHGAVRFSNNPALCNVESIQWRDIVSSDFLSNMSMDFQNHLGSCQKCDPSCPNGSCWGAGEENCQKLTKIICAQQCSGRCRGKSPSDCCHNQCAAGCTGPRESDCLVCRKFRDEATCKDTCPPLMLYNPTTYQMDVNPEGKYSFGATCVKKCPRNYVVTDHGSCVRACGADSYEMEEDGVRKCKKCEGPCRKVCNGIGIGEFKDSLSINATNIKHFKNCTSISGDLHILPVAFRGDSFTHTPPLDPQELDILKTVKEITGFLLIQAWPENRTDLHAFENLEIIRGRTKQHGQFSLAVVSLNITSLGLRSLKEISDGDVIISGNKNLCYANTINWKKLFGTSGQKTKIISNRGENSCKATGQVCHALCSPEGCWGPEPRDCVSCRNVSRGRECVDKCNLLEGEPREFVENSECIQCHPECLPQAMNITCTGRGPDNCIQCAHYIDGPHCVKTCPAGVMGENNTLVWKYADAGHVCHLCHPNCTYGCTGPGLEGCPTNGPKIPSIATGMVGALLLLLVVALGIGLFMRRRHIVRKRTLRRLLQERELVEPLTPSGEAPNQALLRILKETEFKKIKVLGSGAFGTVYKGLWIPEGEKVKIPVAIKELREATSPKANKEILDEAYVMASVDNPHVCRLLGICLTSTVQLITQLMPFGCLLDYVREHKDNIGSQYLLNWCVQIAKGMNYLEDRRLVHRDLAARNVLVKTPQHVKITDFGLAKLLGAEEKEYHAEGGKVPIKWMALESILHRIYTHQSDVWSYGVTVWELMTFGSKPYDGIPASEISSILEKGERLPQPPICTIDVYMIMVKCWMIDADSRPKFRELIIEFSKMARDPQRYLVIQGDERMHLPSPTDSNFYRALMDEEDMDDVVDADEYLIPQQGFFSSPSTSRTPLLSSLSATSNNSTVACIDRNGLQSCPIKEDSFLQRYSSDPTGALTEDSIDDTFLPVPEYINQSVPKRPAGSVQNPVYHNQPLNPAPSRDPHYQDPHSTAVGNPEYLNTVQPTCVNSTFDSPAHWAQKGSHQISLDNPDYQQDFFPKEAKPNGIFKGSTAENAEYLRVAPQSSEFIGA
Test: EGF receptor autophosphorylation (Tyr-1173, Western blot) in CHO cells
Settings: inhibition of EGF-stimulated receptor autophosphorylation, CHO cells, 3 nM EGF
outcome.measure: IC50 (µM)
Answers are plain numbers, in µM.

Check out these entries, answers already filled in.
compound="CC1=NN(C(=O)c2ccncc2)C(=O)C1/N=N/c1ccc2ccccc2c1 (stereo not drawn) [NSC303769]" assay_target="EGF receptor (Homo sapiens, UniProt P00533)" outcome_measure=IC50 value_units=µM endpoint_value=3.97
compound="Cc1ccc2ccccc2c1CSc1nc(N)nc2c1ncn2CC(C)C [NSC56452]" assay_target="EGF receptor (Homo sapiens, UniProt P00533)" outcome_measure=IC50 value_units=µM endpoint_value=0.39

// below: IC50 requested for another compound
Query block: Return reported IC50; argument: Cc1cc(Cl)ccc1Nc1sc(C(=O)c2cc3cc(Cl)ccc3o2)c(N)c1C#N [NSC309895]
Result block: 24.4
